Numbers sourced from ChEMBL document CHEMBL1201862.

Measured GI50, listed per entry.
System: U-251
Test: NCI tumour cell line growth inhibition, 48 h
Active and inactive are the calls of the source. Rule as the data show it: active = GI50 up to about 1.1 µM and inactive = higher.
reported-endpoint: GI50

- Cc1cc2c3c(ccc4[nH]cc(c43)CN2c2ccc(NS(C)(=O)=O)cc2)n1: 22.5 µM (inactive)
- c1ccc2c(C3CCN(CCN4CCOCC4)C3)c[nH]c2c1 (stereo not given): > 100 µM (inactive)
- CC(C)CC(C(N)=O)C(=O)NC(Cc1ccccc1)NC(=O)CNC(=O)C(C)NC(=O)C(N)Cc1ccc(O)cc1 (stereo not given): > 100 µM (inactive)
- Nc1ccccc1NC(=O)c1ccc(CNC(=O)OCc2cccnc2)cc1: 1.54 µM (inactive)
- COc1ccc2oc(=O)c3c(c2c1C)OC(C)(C)C=C3: > 100 µM (inactive)

----------
Listed here: items and their measured GI50.
System: DMS-273
Test: NCI tumour cell line growth inhibition, 48 h
Activity calls are given as the source filed them. No stated cut-off is given here; in the data, active = GI50 up to about 1.1 µM and inactive = higher.
reported-endpoint: GI50

- CC(=O)O[C@]12CCCCCC1C1(O)C(O)CCCCC12 (stereo partly drawn): > 100 µM (inactive)
- CC(C)N(C(=O)C12C3C4C1C1C2C3C41C(=O)N(C(C)C)C(C)C)C(C)C (stereo not drawn): > 50 µM (inactive)
- O=C(Cc1ccccc1)NS(=O)(=O)c1ccccc1: > 100 µM (inactive)

----------
Test system: M19-MEL
Assay: NCI tumour cell line growth inhibition, 48 h
The source made the active and inactive calls. No stated cut-off is given here; in the data, active = GI50 up to about 1.1 µM and inactive = higher.
Known GI50 of a selection of molecules
reported-endpoint: GI50

* COc1cc(/C=C(\C)c2ccc3c(c2)OCO3)cc(OC)c1OC | 31.4 µM (inactive)
* O=c1c2ccccc2nc(-c2ccccc2Cl)n1NCC1(O)OCC(O)C(O)C1O (stereo unspecified) | > 100 µM (inactive)
* C=C1C(=O)O[C@@H]2OC3(C)CCC4C(C)CCC1C42OO3 (stereo partly specified) | 3.49 µM (inactive)
* Nc1nc(N)c2ncn(CC(CO)CC(c3ccccc3)P(=O)(O)O)c2n1 (stereo unspecified) | > 100 µM (inactive)
* CC1=C2C=CC(=O)C[C@@]2(C)CCC1 | > 100 µM (inactive)
* COc1ccc(CCc2ccccc2CC(=O)O)cc1 | > 100 µM (inactive)

----------
Tested on: NCI-H522
Assay: NCI tumour cell line growth inhibition, 48 h
Activity calls are given as the source filed them. No stated cut-off is given here; in the data, active = GI50 up to about 1.1 µM and inactive = higher. Where a SMILES comes first, the peptide text is derived from it. [ ]: non-standard residue; d: D form. The star is where a group is joined. Chg = N[CH](C(=O)O)C1CCCCC1; Cbz = O=C(OCc1ccccc1)*; OBn = c1ccc(CO*)cc1
reported-endpoint: GI50

* CCCCCCCC1C(C)c2c([nH]c3ccccc23)C2C(=O)N(c3ccc(OC)cc3)C(=O)C21 (stereo not given) | 4.48 µM (inactive)
* CN(C)CCCN1c2ccccc2CCc2cc([N+](=O)[O-])ccc21 | 15.7 µM (inactive)
* CC1(C)Cc2c(oc3ncnc(N)c23)CS1 | > 100 µM (inactive)
* COC(=O)C(NC(=O)C(CC(=O)OCc1ccccc1)NC(=O)OCc1ccccc1)C1CCCCC1 (stereo not given) (Cbz-Asp(OBn)-[Chg]-OMe; configuration not given here) | > 100 µM (inactive)
* O=c1ccn(C2OC(CO)C(O)C2O)c(=O)[nH]1 (stereo not given) | > 1000 µM (inactive)
* COc1ccc(CC(C#N)c2cc(OC)c(OC)c(OC)c2)cc1 (stereo not given) | 0.0267 µM (active)
* Oc1nnc2c(-c3ccccc3)n[nH]c2n1 | > 100 µM (inactive)
* CC(=O)CC(=O)NC=O | > 100 µM (inactive)
* CN1CCN(c2ccc3c(c2)NCC(=O)N3)CC1 | > 100 µM (inactive)
* CCOC(=O)Cn1nnc2cc(Nc3c(C)[n+]([O-])c4cc(F)c(OCC)cc4[n+]3[O-])ccc21 | > 100 µM (inactive)
